B1: library; numbered along this chain (parent)
chain: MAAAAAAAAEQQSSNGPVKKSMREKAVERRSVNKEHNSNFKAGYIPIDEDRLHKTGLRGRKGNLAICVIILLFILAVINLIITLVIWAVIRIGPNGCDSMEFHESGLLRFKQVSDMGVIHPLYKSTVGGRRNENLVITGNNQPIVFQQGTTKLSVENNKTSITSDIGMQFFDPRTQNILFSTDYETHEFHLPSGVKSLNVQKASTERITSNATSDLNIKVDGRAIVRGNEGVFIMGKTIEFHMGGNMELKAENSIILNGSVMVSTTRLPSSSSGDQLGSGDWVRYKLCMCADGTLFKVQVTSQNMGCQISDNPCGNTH

Variants of: B1
assayDetails: SGCB cell-surface expression functional score (HA stain, bin4 vs bin1, normalised to synonymous) (log10 ratio); higher = more cell-surface SGCB (functional)
If the reported SGCB cell-surface expression functional score (log10) equals or exceeds -0.2, assign satisfied. If not, assign not satisfied.

Past entries and their recorded results:
[[record]]
variantkey = "I92D"
qualitativelabel = "not satisfied"

[[record]]
variantkey = "L80S"
qualitativelabel = "satisfied"

[[record]]
variantkey = "H187K"
qualitativelabel = "not satisfied"


QUERY: Record `T55W` ; criterion: SGCB cell-surface expression functional score (log10) no lower than -0.2. Met?
RESULT: not satisfied

QUERY: Now the same for `S38G`
RESULT: satisfied
